Provenance of the data: patent US20080226718A1

- Test system: lymphocytes
- Run description: Chemokine-induced rapid adhesion of lymphocytes to ICAM-1 (MIP3β)
- Type: cell-based
- Protocol conditions: Homo sapiens, Lymphocyte, [cpd] 50 μM, MIP3β 1 μM, read-out: Inhibition of Adhesion (%) Lymphocytes (MIP3-β) (converted)
Threshold check on inhibition at 50 µM: at or above 90% gives yes (1), strictly below gives no (0).

| Compound | Label value |
| --- | --- |
| COc1ccc(-c2c3n(c4cc(OC)c(OC)cc24)CC(=O)NC3)cc1 [Example 66] | no (0) |
| COc1cc2[nH]c(C(=O)N(C)C)c(-c3ccccc3)c2cc1OC [Example 46] | no (0) |
| CCOC(=O)CCc1[nH]c2cc(OC)c(OC)cc2c1-c1ccc(OC)cc1 [Example 22] | yes (1) |
| COc1cc2[nH]c(C(=O)N3CCOCC3)c(-c3ccccc3)c2cc1OC [Example 47] | no (0) |
| COc1cc2[nH]c(-c3nnc[nH]3)c(-c3ccccc3)c2cc1OC [Example 58] | yes (1) |
| COc1ccc(-c2c(C#N)n(CCCN(C)C)c3cc(OC)c(OC)cc23)cc1 [Example 55] | yes (1) |
| COc1ccc(-c2c(-c3nnc(C)o3)[nH]c3cc(OC)c(OC)cc23)cc1 [Example 77] | no (0) |
| COc1ccc(-c2c(C#N)n(CCN(C)C)c3cc(OC)c(OC)cc23)cc1 [Example 18] | yes (1) |
